Measured pIC50 values are reported for all entries that follow.
Molecular target: Sodium/potassium-transporting ATPase
Experiment: Inhibition of [3H]ouabain binding to Na/K ATP-ase in dog heart muscle
API: returns pIC50 as number; meaning -log10 of concentration in mol/L.

CC(=O)C1CCC2(O)C3CCC4C[C@@H](OC[C@H]5O[C@@H](O)[C@H](O)[C@H](O)[C@H]5O)CCC4(C)C3CCC12C (stereo partly specified)	6.30
C[C@H](O)C1CC[C@@]2(O)[C@@H]3CC[C@H]4C[C@@H](OC[C@@H]5O[C@H](OC[C@@H]6O[C@H](O)C[C@@H](O)[C@H]6O)C[C@@H](O)[C@H]5O)CC[C@]4(C)[C@H]3CC[C@]12C (stereo partly specified)	6.19
C[C@]12CC[C@H](OC[C@@H]3O[C@H](OC[C@@H]4O[C@H](O)C[C@@H](O)[C@H]4O)C[C@@H](O)[C@H]3O)C[C@@H]1CC[C@@H]1[C@@H]2CC[C@]2(C)[C@@H](C3=CC(=O)OC3)CC[C@@]12O	8.10

Field pIC50 (entry CC(O)[C@H]1CC[C@@]2(O)[C@@H]3CCC4C[C@@H](O)CC[C@]4(C)[C@H]3CC[C@]12C (stereo partly specified) ) reads 5.19

Reported pIC50 ( CC(O)C1CCC2(O)C3CCC4C[C@@H](OC[C@H]5O[C@@H](O)[C@H](O)[C@H](O)[C@H]5O)CCC4(C)C3CCC12C (stereo partly specified) ) = 6.40

Recorded pIC50 (compound CC(O)[C@H]1CC[C@@]2(O)[C@@H]3CC[C@H]4C[C@@H](OC[C@@H]5O[C@H](O)C[C@@H](O)[C@H]5O)CC[C@]4(C)[C@H]3CC[C@]12C (stereo partly specified) ): 6.19

Record "CC(=O)[C@H]1CC[C@@]2(O)[C@@H]3CC[C@H]4C[C@@H](OC[C@@H]5O[C@H](O)C[C@@H](O)[C@H]5O)CC[C@]4(C)[C@H]3CC[C@]12C" . Reported pIC50: 5.89

// recorded pIC50 for "CC(=O)[C@H]1CC[C@@]2(O)[C@@H]3CC[C@H]4C[C@@H](OC[C@@H]5O[C@H](OC[C@@H]6O[C@H](OC[C@@H]7O[C@H](O)C[C@@H](O)[C@H]7O)C[C@@H](O)[C@H]6O)C[C@@H](O)[C@H]5O)CC[C@]4(C)[C@H]3CC[C@]12C" : 6.00

pIC50 measured on CC(O)C1CCC2(O)C3CCC4C[C@H](OC[C@H]5O[C@@H](O)[C@H](O)[C@H](O)[C@H]5O)CCC4(C)C3CCC12C (stereo partly specified) = 7.12

The reported pIC50 of the compound CC(O)[C@H]1CC[C@@]2(O)[C@@H]3CC[C@H]4CCCC[C@]4(C)[C@H]3CC[C@]12C (stereo partly specified) was 4.62

Measured pIC50 of "CC(=O)[C@H]1CC[C@@]2(O)[C@@H]3CC[C@H]4C[C@@H](O)CC[C@]4(C)[C@H]3CC[C@]12C" : 4.70

---

Target: Sodium/potassium-transporting ATPase
Assay: Inhibition of [3H]ouabain binding to Na/K ATP-ase in dog heart muscle
measure-name: pIC50
As a rule, pIC50 stands for the negative log10 of the concentration, concentration in M.

Known pIC50 results, listed for orientation:
CC(=O)C1CCC2(O)C3CCC4C[C@H](OC[C@H]5O[C@@H](O)[C@H](O)[C@H](O)[C@H]5O)CCC4(C)C3CCC12C (some centres undefined)	6.82
C[C@]12CCCC[C@@H]1CC[C@@H]1[C@@H]2CC[C@]2(C)[C@@H](C3=CC(=O)OC3)CC[C@@]12O	7.15
C[C@]12CC[C@H](OC[C@H]3O[C@H](O)[C@H](O)[C@@H](O)[C@@H]3O)CC1CC[C@@H]1[C@@H]2CC[C@]2(C)[C@@H](C3=CC(=O)OC3)CC[C@@]12O (some centres undefined)	8.15

Consider the record given below.
With Sodium/potassium-transporting ATPase as the test system, CC(O)[C@H]1CC[C@@]2(O)[C@@H]3CC[C@H]4C[C@@H](OC[C@@H]5O[C@H](OC[C@@H]6O[C@H](OC[C@@H]7O[C@H](O)C[C@@H](O)[C@H]7O)C[C@@H](O)[C@H]6O)C[C@@H](O)[C@H]5O)CC[C@]4(C)[C@H]3CC[C@]12C (some centres undefined) showed pIC50 of 6.19
